Molecular target: D(2) dopamine receptor (Homo sapiens)
Experiment: Dopamine D2 receptor (DRD2) small molecule antagonists, cell-based qHTS assay (AID 1963595)
Details: HEK293-DRD2 cAMP HTRF antagonist mode; series mostly up to 92.4 µM
Records with an inconclusive call do not appear. Calls of active or inactive are those of the source. Calls follow the shape of the dose curve; as a rule, active = well fitted inhibition curve with a large enough effect in the signal ratio in the repeat runs, with a control signal flat; inconclusive = weak or mixed curves, or effect the other way; inactive = flat fitted curve, though single readings scatter; the % refers to the signal ratio.
Your reply should match one of these outcome classes. active, inactive

Prompt: For `Clc1cccc(-c2cc(Cl)cc(Cl)c2)c1` , what call appears in the results of this test?
Response: inactive

Prompt: For `NCCc1cnc[nH]1` , what call appears in the results of this test?
Response: inactive

Prompt: For `CN(C/C=C/c1ccccc1)Cc1cccc2ccccc12` , what call appears in the results of this test?
Response: active

Prompt: For `NC(=O)Nc1nc2ccccc2[nH]1` , what call appears in the results of this test?
Response: inactive

Prompt: For `CCCCCC` , what call appears in the results of this test?
Response: inactive

Prompt: For `CCCCCCCCCCCCOCCOS(=O)(=O)O` , what call appears in the results of this test?
Response: inactive

Prompt: For CC(CCc1ccc2c(c1)OCO2)NN (centres undefined) , what call appears in the results of this test?
Response: inactive

Prompt: For `Nc1nc(Cl)nc2c1ncn2[C@H]1C[C@H](O)[C@@H](CO)O1` , what call appears in the results of this test?
Response: inactive

Prompt: For `CCCCCCOc1ccc(O)cc1` , what call appears in the results of this test?
Response: active

Prompt: For `N#Cc1ccccc1O` , what call appears in the results of this test?
Response: inactive

Prompt: For `[Cl][Bi]([Cl])([c]1ccccc1)([c]1ccccc1)[c]1ccccc1` , what call appears in the results of this test?
Response: active

Prompt: For `N#CCCOCCC#N` , what call appears in the results of this test?
Response: inactive

Prompt: For `COC(=O)C(C)=O` , what call appears in the results of this test?
Response: inactive

Prompt: For `C[C@@]12CCC[C@H]1[C@@H]1CC[C@H]3C[C@@H](O)CC[C@]3(C)[C@H]1CC2` , what call appears in the results of this test?
Response: inactive
